Attribution: patent US10214492B2

# protocolDescription: Pharmacokinetic assay in mouse (IV 3 mg/kg, PO 10 mg/kg)
# Format: in vivo
# details: Male CD1 mouse, plasma, PO 10 mg/kg, read-out: Mouse t1/2 (converted)
measuredParameter: half-life (h)

Known half-life results, listed for orientation:
smilesData	resultNumber
CCCn1ncc2ccc(-c3cc(CO[C@](C)(CC)C(=O)O)nn3-c3ccccc3N3CCC3)cc21	3.3
CCn1ncc2ccc(-c3cc(CO[C@](C)(CC)C(=O)O)nn3-c3ccccc3N3CCC3)cc21	3.3
CCn1ncc2ccc(-c3cc(CO[C@@](C)(CC)C(=O)O)nn3Cc3ccccc3Cl)cc21	3.6
CC(C)(OCc1cc(-c2cccc(OC3CCC3)c2)n(-c2ccccc2N2CCC2)n1)C(=O)O	5.2
CCOc1ccccc1Cn1nc(CO[C@](C)(CC)C(=O)O)cc1-c1cc(OC)cc(OC)c1	2.7

P: CC(C)(OCc1cc(-c2cccc(OC3CC3)c2)n(-c2ccccc2Cl)n1)C(=O)O
Q: CCn1ncc2ccc(-c3cc(COC(C)(C)C(=O)O)nn3Cc3ccccc3Cl)cc21
R: CCn1ncc2ccc(-c3cc(CO[C@](C)(CC)C(=O)O)nn3-c3ccccc3N3CCCC3)cc21
Lookup: Rank items: key half-life, increasing. # answer = labels listed in requested order
Found: R, Q, P
(R: 2.7 h, Q: 4.9 h, P: 26.7 h)

====

# protocolDescription: Metabolic stability in rat liver microsomes (in vitro t1/2)
# Type: in vitro ADME
# details: rat liver microsomes 0.5 mg/mL, 2 μM compound; read-out: Rat microsome t1/2, min
measuredParameter: half-life at 2 µM (h)

As a guide, the following entries are already answered.
smilesData	half-life at 2 µM [h]
COc1cccc(-c2cc(COC(C)(C)C(=O)O)nn2Cc2ccccc2OC(C)C)c1	0.983
CCOc1ccccc1Cn1nc(COC(C)(C)C(=O)O)cc1-c1cc(OC)cc(OC)c1	1.22
Cn1ncc2cccc(-n3nc(COC(C)(C)C(=O)O)cc3-c3cccc(OCC4CCC4)c3)c21	2.88
Cc1ccccc1-n1nc(COC(C)(C)C(=O)O)cc1-c1cccc(OC2CC2)c1	8.17
CCOc1ccccc1Cn1nc(COC(C)(C)C(=O)O)cc1-c1cc(Cl)cc(OC)c1	0.633

I: CCOc1ccccc1Cn1nc(COC(C)(C)C(=O)O)cc1-c1ccc2cnn(CC)c2c1
II: CCn1ncc2ccc(-c3cc(COC(C)(C)C(=O)O)nn3Cc3ccccc3Cl)cc21
Lookup: Hi! Which is lower in terms of half-life at 2 µM, the first one I or the second one II ? Respond using the label that marks the chosen record.
Found: I

a: COc1cc(OC)cc(-c2cc(COC(C)(C)C(=O)O)nn2-c2ccccc2N2CCC2)c1
b: CCn1ncc2ccc(-c3cc(COC(C)(C)C(=O)O)nn3-c3ccccc3N3CCC3)cc21
Lookup: Sorting ascending by half-life at 2 µM, which comes first: a or b ? Write down the label of the entry you select.
Found: a

a: CC(C)(C)COc1cccc(-c2cc(COC(C)(C)C(=O)O)nn2-c2ccccc2N2CCC2)c1
b: CCn1ncc2ccc(-c3cc(CO[C@](C)(CC)C(=O)O)nn3Cc3ccccc3Cl)cc21
Lookup: Could you kindly indicate whether a or b has the higher half-life at 2 µM value? Indicate which entry you chose by stating its label.
Found: b

1: CC(C)(OCc1cc(-c2cccc(OC3CC3)c2)n(-c2ccc(F)cc2N2CCC2)n1)C(=O)O
2: CC(C)(C)COc1cccc(-c2cc(COC(C)(C)C(=O)O)nn2-c2ccccc2Cl)c1
Lookup: Two entries are listed, 1 and 2 . Which one carries the higher half-life at 2 µM? Lab log: write the label of the selected item as the result.
Found: 2
(2: 10.6 h, 1: 1.68 h)
